- method.summary: Bioavailability / PK study in CD-1 mice (IP injection)
- Format: in vivo
- test.context: male, CD-1, mouse, plasma, ip, 20 mg/kg, 20 mg/kg IP, read-out: t1/2 (converted)
attribute.measured: half-life (min)

item.smiles: O=C(O)c1ccc(N(Cc2cccc(C3CCCC3)c2)C(=O)CN(Cc2c(F)c(F)c(F)c(F)c2F)S(=O)(=O)c2c(F)c(F)c(F)c(F)c2F)cc1
half-life [min]: 21
//
item.smiles: O=C(O)c1ccc(N(Cc2cccc(C3CCCC3)c2)C(=O)CN(Cc2ccc(Cl)cc2)S(=O)(=O)c2c(F)c(F)c(F)c(F)c2F)cc1O
half-life [min]: 56.4

P. O=C(O)c1ccc(N(Cc2cccc(C3CCCC3)c2)C(=O)CN(Cc2c(F)c(F)c(F)c(F)c2F)S(=O)(=O)c2c(F)c(F)c(F)c(F)c2F)cc1O
Q. O=C(O)c1ccc(N(Cc2cccc(C3CCCC3)c2)C(=O)CN(Cc2ccc(Cl)cc2)S(=O)(=O)c2c(F)c(F)c(F)c(F)c2F)cc1
## Task Return label of the item with the larger half-life. Candidates: P , Q . Answer by stating the label of the chosen item.
## Result P

====

- method.summary: Bioavailability / PK study in CD-1 mice (IP injection)
- Type: in vivo
- test.context: male, CD-1, mouse, plasma, ip, 20 mg/kg, 20 mg/kg IP, individual animal
attribute.measured: AUC(0-t) (ng·h/mL)
Could you give me the number in ng·h/mL? Just the number is fine.

## Task Please look up its AUC(0-t): CC(C)(C)c1cc(CN(C(=O)CN(Cc2ccc(Cl)cc2)S(=O)(=O)c2c(F)c(F)c(F)c(F)c2F)c2ccc(C(=O)O)c(O)c2)cc(C2CC2)c1
## Result 5800

====

- method.summary: Bioavailability / PK study in CD-1 mice (IP injection)
- Assay type: in vivo
- test.context: male, mouse, 20 mg/kg IP, plasma, mean N=3
- Description: The study groups for PK for compound I, II and comparative experiments with AC-3-19 and JPX-0371 experiments are shown in Table 2. All animals had free access to food and water. […] Concentrations of compounds in the plasma samples were analyzed using a LC-MS/MS method. […] Pharmacokinetic parameters were calculated, whenever possible from the plasma concentration versus time data: IP parameters including T1/2, Cmax, Tmax, AUClast, AUCinf, MRT are calculated.
attribute.measured: Tmax (min)
Could you give me the number in min? Just the number is fine.

## Task Please look up its Tmax: CC(C)(C)c1cc(CN(C(=O)CN(Cc2ccc(Cl)cc2)S(=O)(=O)c2c(F)c(F)c(F)c(F)c2F)c2ccc(C(=O)O)c(O)c2)cc(C2CC2)c1
## Result 30

====

- method.summary: Bioavailability / PK study in CD-1 mice (IP injection)
- Format: in vivo
- test.context: male, CD-1, mouse, plasma, ip, 20 mg/kg, 20 mg/kg IP, individual animal
- Method: The study groups for PK for compound I, II and comparative experiments with AC-3-19 and JPX-0371 experiments are shown in Table 2. All animals had free access to food and water. […] Concentrations of compounds in the plasma samples were analyzed using a LC-MS/MS method. […] Pharmacokinetic parameters were calculated, whenever possible from the plasma concentration versus time data: IP parameters including T1/2, Cmax, Tmax, AUClast, AUCinf, MRT are calculated.
attribute.measured: AUC(0-inf) (ng·h/mL)
Could you give me the number in ng·h/mL? Just the number is fine.

## Task Please look up its AUC(0-inf): CC(C)(C)c1cc(CN(C(=O)CN(Cc2ccc(Cl)cc2)S(=O)(=O)c2c(F)c(F)c(F)c(F)c2F)c2ccc(C(=O)O)c(O)c2)cc(C2CC2)c1 [Compound I]
## Result 5820

====

- method.summary: Bioavailability / PK study in CD-1 mice (IP injection)
- Assay type: in vivo
- test.context: male, CD-1, mouse, plasma, ip, 20 mg/kg, 20 mg/kg IP, individual animal, read-out: t1/2 (converted)
attribute.measured: half-life (h)
Could you give me the number in h? Just the number is fine.

## Task Please look up its half-life: CC(C)(C)c1cc(CN(C(=O)CN(Cc2ccc(Cl)cc2)S(=O)(=O)c2c(F)c(F)c(F)c(F)c2F)c2ccc(C(=O)O)c(O)c2)cc(C2CC2)c1
## Result 3.92

====

- method.summary: Bioavailability / PK study in CD-1 mice (IP injection)
- Type: in vivo
- test.context: male, CD-1, mouse, plasma, ip, 20 mg/kg, 20 mg/kg IP, mean N=3, read-out: Cmax
attribute.measured: Cmax (ng/mL)
Could you give me the number in ng/mL? Just the number is fine.

## Task Please look up its Cmax: CC(C)(C)c1cc(CN(C(=O)CN(Cc2ccc(Cl)cc2)S(=O)(=O)c2c(F)c(F)c(F)c(F)c2F)c2ccc(C(=O)O)c(O)c2)cc(C2CC2)c1
## Result 3260

====

- method.summary: Bioavailability / PK study in CD-1 mice (IP injection)
- Assay type: in vivo
- test.context: male, CD-1, mouse, plasma, ip, 20 mg/kg, 20 mg/kg IP, mean N=3
attribute.measured: AUC(0-t) (ng·h/mL)
Could you give me the number in ng·h/mL? Just the number is fine.

## Task Please look up its AUC(0-t): CC(C)(C)c1cc(CN(C(=O)CN(Cc2ccc(Cl)cc2)S(=O)(=O)c2c(F)c(F)c(F)c(F)c2F)c2ccc(C(=O)O)c(O)c2)cc(C2CC2)c1
## Result 6520

====

- method.summary: Bioavailability / PK study in CD-1 mice (IP injection)
- Format: in vivo
- test.context: male, CD-1, mouse, plasma, ip, 20 mg/kg, 20 mg/kg IP, read-out: calculated T1/2 (FIG. 6) (converted)
attribute.measured: half-life (h)
Could you give me the number in h? Just the number is fine.

## Task Please look up its half-life: CC(C)(C)c1cc(CN(C(=O)CN(Cc2ccc(Cl)cc2)S(=O)(=O)c2c(F)c(F)c(F)c(F)c2F)c2ccc(C(=O)O)c(O)c2)cc(C2CC2)c1
## Result 3.9

====

- method.summary: Intrinsic clearance in mouse hepatocyte
- Type: in vitro ADME
- test.context: mouse, mouse hepatocytes, time points 0-120 minutes, read-out: In vitro T1/2 in mouse hepatocytes
- Method: A stock of 100 μM test compound was prepared by diluting the 10 mM test compound in DMSO with a solution of 50% acetonitrile and 50% water. […] The in vitro half-life (T1/2) was determined by the linear regression of the natural logarithm of the remaining percentage of the parent drug vs. incubation time curve. […] The in vitro intrinsic clearance (in vitro CLint, in μL/min/10^6 cells) was determined by the following equation. […]
attribute.measured: half-life at 1 µM (h)

P. CC(C)(C)c1cc(CN(C(=O)CN(Cc2ccc(Cl)cc2)S(=O)(=O)c2c(F)c(F)c(F)c(F)c2F)c2ccc(C(=O)O)cc2)cc(C2CC2)c1
Q. CC(C)(C)c1cc(CN(C(=O)CN(Cc2ccc(Cl)cc2)S(=O)(=O)c2c(F)c(F)c(F)c(F)c2F)c2ccc(C(=O)O)c(O)c2)cc(C2CC2)c1
## Task Return label of the item with the larger half-life at 1 µM. Candidates: P , Q . Answer by stating the label of the chosen item.
## Result Q

====

- method.summary: Bioavailability / PK study in CD-1 mice (IP injection)
- Assay type: in vivo
- test.context: male, CD-1, mouse, plasma, ip, 20 mg/kg, 20 mg/kg IP, individual animal, read-out: Cmax
attribute.measured: Cmax (ng/mL)
Could you give me the number in ng/mL? Just the number is fine.

## Task Please look up its Cmax: CC(C)(C)c1cc(CN(C(=O)CN(Cc2ccc(Cl)cc2)S(=O)(=O)c2c(F)c(F)c(F)c(F)c2F)c2ccc(C(=O)O)c(O)c2)cc(C2CC2)c1
## Result 3010

====

- Test system: HaCat
- method.summary: Cell Titer-Blue cell viability assay, HaCat (healthy cell line)
- Type: cell-based
- test.context: Homo sapiens, 72 hrs exposure
attribute.measured: IC50 (µM)
Could you give me the number in µM? Just the number is fine.

## Task Please look up its IC50: CC(C)(C)c1cc(CN(C(=O)CN(Cc2ccc(Cl)cc2)S(=O)(=O)c2c(F)c(F)c(F)c(F)c2F)c2ccc(C(=O)O)c(O)c2)cc(C2CC2)c1
## Result 20

====

- method.summary: Bioavailability / PK study in CD-1 mice (IP injection)
- Type: in vivo
- test.context: male, CD-1, mouse, plasma, ip, 20 mg/kg, 20 mg/kg IP, mean N=3, read-out: t1/2 (converted)
attribute.measured: half-life (h)
Could you give me the number in h? Just the number is fine.

## Task Please look up its half-life: CC(C)(C)c1cc(CN(C(=O)CN(Cc2ccc(Cl)cc2)S(=O)(=O)c2c(F)c(F)c(F)c(F)c2F)c2ccc(C(=O)O)c(O)c2)cc(C2CC2)c1
## Result 3.93
